System: Trypanosoma brucei rhodesiense
test description: Inhibitory activity against T.b. rhodesiense
Format: functional, organism-based
# IC50 listing for each entry below
observable: IC50 (µM)

1. CNc1nc(N)nc(NCCCNCCCCCCCCCCCCNCCCN)n1; 1.1
2. CNc1nc(NC)nc(NCCCNCCCCCCCCCCCCNCCCN)n1; 0.58
3. Nc1nc(N)nc(CN(CCCNCCCCCCCCCCCCNCCCN(Cc2nc(N)nc(N)n2)Cc2nc(N)nc(N)n2)Cc2nc(N)nc(N)n2)n1; 0.57
4. CN(C)c1nc(N)nc(NCCCNCCCCCCCCCNCCCNc2nc(N)nc(N(C)C)n2)n1; 9.6
5. Nc1nc(N)nc(NCCCCCCCCCCCCNc2nc(N)nc(N)n2)n1; 13
6. Nc1nc(N)nc(NCCCNCCCCNCCCNc2nc(N)nc(N)n2)n1; 160
7. CN(C)c1nc(N)nc(CN(CCCNCCCCCCCCCCCCNCCCN(Cc2nc(N)nc(N(C)C)n2)Cc2nc(N)nc(N(C)C)n2)Cc2nc(N)nc(N(C)C)n2)n1; 0.44
